Where these numbers come from: the RNAGym collection of RNA variant scans (doi:10.7554/elife.90254)

B1: LINE1-full (parent)
chain: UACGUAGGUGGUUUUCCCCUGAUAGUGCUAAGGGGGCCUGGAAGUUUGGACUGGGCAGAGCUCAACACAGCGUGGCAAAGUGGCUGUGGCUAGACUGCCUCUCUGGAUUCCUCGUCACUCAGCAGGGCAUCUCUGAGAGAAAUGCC

# Variants of: B1
# Assay Text: self-cleavage, relative activity (ratio to wild type); higher = more cleavage; in vitro, sequencing; the parent is a self-cleaving ribozyme
Response key: 1.0 means self-cleavage >= 0.8; 0.0 means self-cleavage < 0.8.

query: Say whether U85C U109G shows self-cleavage of 0.8 or more.
result: 0.0

query: Say whether G53C A65U shows self-cleavage of 0.8 or more.
result: 0.0
